src = patent US7259153B2

# assayProtocol: Equilibrium solubility of drug substance in media with solubilizer (excess drug, rotated 48 hours at room temperature, filtered, HPLC)
# Format: physicochemical
# experimentalSetup: aqueous media with solubilizer, aqueous with cosolvent or surfactant or cyclodextrin, thermodynamic from solid, 5% (w/v) Cryst. Methylated β-CD, aqueous; read-out: Oxcarbazepine Solubility
# Description: An excess of drug substance was added to 20 ml glass liquid scintillation vials (Kimble Glass Inc., Vineland, N.J.) containing 10 ml of the media with a specific amount of solubilizer. […] The samples were filtered through a 0.45 μm filter (Acrodisc CR PTFE membrane filter, Gelman Sciences, Ann Arbor, Mich.). […]
measure: solubility at 48 h (µg/mL)
Record the value in µg/mL, omitting the unit from your answer.

Req: Look at this compound and give its reported solubility at 48 h. NC(=O)N1c2ccccc2CC(=O)c2ccccc21 [Oxcarbazepine]
Resp: 820

###

# assayProtocol: Equilibrium solubility of drug substance in media with solubilizer (excess drug, rotated 48 hours at room temperature, filtered, HPLC)
# Format: physicochemical
# experimentalSetup: 1% (w/v) Cryst. Methylated β-CD, aqueous, aqueous with cosolvent or surfactant or cyclodextrin, thermodynamic from solid, 1% (w/v) Cryst. Methylated β-CD, aqueous; read-out: Oxcarbazepine Solubility
measure: solubility at 48 h (µg/mL)
Record the value in µg/mL, omitting the unit from your answer.

Req: Look at this molecule and give its reported solubility at 48 h. NC(=O)N1c2ccccc2CC(=O)c2ccccc21 [Oxcarbazepine]
Resp: 230

###

# assayProtocol: Equilibrium solubility of drug substance in media with solubilizer (excess drug, rotated 48 hours at room temperature, filtered, HPLC)
# Type: physicochemical
# experimentalSetup: aqueous media with solubilizer, aqueous with cosolvent or surfactant or cyclodextrin, thermodynamic from solid, 5% (w/v) HP-β-cyclodextrin, aqueous; read-out: Oxcarbazepine Solubility
measure: solubility at 48 h (µg/mL)
Record the value in µg/mL, omitting the unit from your answer.

Req: Look at this compound and give its reported solubility at 48 h. NC(=O)N1c2ccccc2CC(=O)c2ccccc21 [Oxcarbazepine]
Resp: 340

###

# assayProtocol: Equilibrium solubility of drug substance in media with solubilizer (excess drug, rotated 48 hours at room temperature, filtered, HPLC)
# Assay type: physicochemical
# experimentalSetup: 2% (w/v) Tween 80, aqueous, aqueous with cosolvent or surfactant or cyclodextrin, thermodynamic from solid, 2% (w/v) Tween 80, aqueous; read-out: Oxcarbazepine Solubility
measure: solubility at 48 h (µg/mL)
Record the value in µg/mL, omitting the unit from your answer.

Req: Look at this compound and give its reported solubility at 48 h. NC(=O)N1c2ccccc2CC(=O)c2ccccc21 [Oxcarbazepine]
Resp: 170

###

# assayProtocol: Equilibrium solubility of drug substance in media with solubilizer (excess drug, rotated 48 hours at room temperature, filtered, HPLC)
# Assay type: physicochemical
# experimentalSetup: 1% (w/v) Tween 80, aqueous, aqueous with cosolvent or surfactant or cyclodextrin, thermodynamic from solid, 1% (w/v) Tween 80, aqueous; read-out: Oxcarbazepine Solubility
measure: solubility at 48 h (µg/mL)
Record the value in µg/mL, omitting the unit from your answer.

Req: Look at this compound and give its reported solubility at 48 h. NC(=O)N1c2ccccc2CC(=O)c2ccccc21 [Oxcarbazepine]
Resp: 120

###

# assayProtocol: Equilibrium solubility of drug substance in media with solubilizer (excess drug, rotated 48 hours at room temperature, filtered, HPLC)
# Type: physicochemical
# experimentalSetup: 1% (w/v) HP-β-cyclodextrin, aqueous, aqueous with cosolvent or surfactant or cyclodextrin, thermodynamic from solid, 1% (w/v) HP-β-cyclodextrin, aqueous; read-out: Oxcarbazepine Solubility
# Protocol: An excess of drug substance was added to 20 ml glass liquid scintillation vials (Kimble Glass Inc., Vineland, N.J.) containing 10 ml of the media with a specific amount of solubilizer. […] The samples were filtered through a 0.45 μm filter (Acrodisc CR PTFE membrane filter, Gelman Sciences, Ann Arbor, Mich.). […]
measure: solubility at 48 h (mg/mL)
Record the value in mg/mL, omitting the unit from your answer.

Req: Look at this compound and give its reported solubility at 48 h. NC(=O)N1c2ccccc2CC(=O)c2ccccc21 [Oxcarbazepine]
Resp: 0.13
